- system: Human immunodeficiency virus type 1 reverse transcriptase (Human immunodeficiency virus 1) (UniProt Q72547)
- testProtocol: In vitro inhibitory activity against HIV-1 reverse transcriptase at 100 uM
metric: inhibition (%)

In [3]: df
Out[3]:
                                         mol  numericreadout
 0  CC(=O)Nc1cccnc1N1CCN(C(=O)c2cc3ccccc3[nH]2)CC1               0
 1  CCNc1ccccc1N1CCN(C(=O)c2cc(C)c(OC)c(C)c2)CC1              21
 2  N#Cc1ccccc1N1CCN(C(=O)c2cc3ccccc3[nH]2)CC1               0
 3  CCNc1cccnc1N1CCN(C(=O)c2ccc3[nH]ccc3c2)CC1              45
 4  CCC(=O)c1cccnc1N1CCN(C(=O)c2cc3ccccc3[nH]2)CC1              40
 5  CCNc1cccnc1N1CCN(C(=O)c2nc3ccccc3[nH]2)CC1              69
 6  CCNc1cccnc1N1CCN(Cc2cc(C)c(OC)c(C)c2)CC1              73
 7    CCNc1cccnc1N1CCN(Cc2cc3ccccc3[nH]2)CC1              64
 8  CCNc1ccccc1N1CCN(C(=O)c2cc3ccccc3[nH]2)CC1              78
 9  CC(C)Nc1ccccc1N1CCN(C(=O)c2cc3ccccc3[nH]2)CC1              87
10  CC(C)(C)Nc1cccnc1N1CCN(C(=O)c2cc3cc(F)ccc3[nH]2)CC1              89
11  COC(=O)c1cccnc1N1CCN(C(=O)c2cc3ccccc3[nH]2)CC1              82
12  CC(C)Nc1cc(F)ccc1N1CCN(C(=O)c2cc3ccccc3[nH]2)CC1              83
13   CCNc1cccnc1N1CCN(C(=O)c2cc3ccccc3o2)CC1              37
14  CC(C)(C)Nc1cccnc1N1CCN(C(=O)c2cc3ccccc3[nH]2)CC1              89
15  CC(C)NCc1cccnc1N1CCN(C(=O)c2cc3ccccc3[nH]2)CC1               0
16  CCN(CC)c1cccnc1N1CCN(C(=O)c2cc3ccccc3[nH]2)CC1              69
17  CCOc1ccccc1N1CCN(Cc2cc(C)c(OC)c(C)c2)CC1               0
18   CCNc1cccnc1N1CCN(C(=O)c2cc3ccccc3s2)CC1              50
19  CCNc1cccnc1N1CCN(C(=O)c2cc3ccccc3oc2=O)CC1              16
20  CCNc1cccnc1N1CCN(C(=O)c2c[nH]c3ccccc23)CC1              22
21  O=C(c1cc2ccccc2[nH]1)N1CCN(c2ncccc2NCc2ccccc2)CC1              14
22  CC(C)(C)C(=O)c1cccnc1N1CCN(C(=O)c2cc3ccccc3[nH]2)CC1              58
23  CCc1ccccc1N1CCN(C(=O)c2cc3ccccc3[nH]2)CC1               0
24  COc1c(C)cc(CN2CCN(c3ncccc3NC(C)C)CC2)cc1C              84
25  CC(C)Nc1ccc(N2CCN(C(=O)c3ccc4[nH]ccc4c3)CC2)nc1               0
26  CC(C)Nc1ccc(F)cc1N1CCN(C(=O)c2cc3ccccc3[nH]2)CC1              77
27  COc1ccc(N2CCN(C(=O)c3cc4ccccc4[nH]3)CC2)c(OC)c1               7
28  CCNc1cccnc1N1CCN(C(=O)c2cc3c(C)c(OC)c(C)c(C)c3[nH]2)CC1              63
29  CCCNc1cccnc1N1CCN(Cc2cc(C)c(OC)c(C)c2)CC1              60
30   CCNc1cccnc1N1CCN(C(=O)c2nc3ccccc3o2)CC1               0
31  CC(C)Nc1cnnc(N2CCN(C(=O)c3ccc4[nH]ccc4c3)CC2)c1              39
32  CCOC(=O)c1cccnc1N1CCN(C(=O)c2cc3ccccc3[nH]2)CC1              68
33  CC(C)(C)NC(=O)c1cccnc1N1CCN(C(=O)c2cc3ccccc3[nH]2)CC1              50
